Target: T1, Snu66 peptide-14 (Saccharomyces cerevisiae)
T1 chain: TNEIREKLGM
Test: MST
Reported Endpoint: Kd (µM)
Report only the number, with the unit µM understood.

Record Hub1 1-73 (protein) MIEVVCNDRLGKKVRVKCNTDDTIGDLKKLIAAQTGTRWNKIVLKKWYTIFKDHVSLGDYEIHDGMNLELYYQ . Reported Kd: 14
